Data provenance is ChEMBL document CHEMBL1158538.

Target: Transient receptor potential cation channel subfamily A member 1 (Rattus norvegicus, UniProt Q6RI86)
Sequence (Q6RI86 whole entry): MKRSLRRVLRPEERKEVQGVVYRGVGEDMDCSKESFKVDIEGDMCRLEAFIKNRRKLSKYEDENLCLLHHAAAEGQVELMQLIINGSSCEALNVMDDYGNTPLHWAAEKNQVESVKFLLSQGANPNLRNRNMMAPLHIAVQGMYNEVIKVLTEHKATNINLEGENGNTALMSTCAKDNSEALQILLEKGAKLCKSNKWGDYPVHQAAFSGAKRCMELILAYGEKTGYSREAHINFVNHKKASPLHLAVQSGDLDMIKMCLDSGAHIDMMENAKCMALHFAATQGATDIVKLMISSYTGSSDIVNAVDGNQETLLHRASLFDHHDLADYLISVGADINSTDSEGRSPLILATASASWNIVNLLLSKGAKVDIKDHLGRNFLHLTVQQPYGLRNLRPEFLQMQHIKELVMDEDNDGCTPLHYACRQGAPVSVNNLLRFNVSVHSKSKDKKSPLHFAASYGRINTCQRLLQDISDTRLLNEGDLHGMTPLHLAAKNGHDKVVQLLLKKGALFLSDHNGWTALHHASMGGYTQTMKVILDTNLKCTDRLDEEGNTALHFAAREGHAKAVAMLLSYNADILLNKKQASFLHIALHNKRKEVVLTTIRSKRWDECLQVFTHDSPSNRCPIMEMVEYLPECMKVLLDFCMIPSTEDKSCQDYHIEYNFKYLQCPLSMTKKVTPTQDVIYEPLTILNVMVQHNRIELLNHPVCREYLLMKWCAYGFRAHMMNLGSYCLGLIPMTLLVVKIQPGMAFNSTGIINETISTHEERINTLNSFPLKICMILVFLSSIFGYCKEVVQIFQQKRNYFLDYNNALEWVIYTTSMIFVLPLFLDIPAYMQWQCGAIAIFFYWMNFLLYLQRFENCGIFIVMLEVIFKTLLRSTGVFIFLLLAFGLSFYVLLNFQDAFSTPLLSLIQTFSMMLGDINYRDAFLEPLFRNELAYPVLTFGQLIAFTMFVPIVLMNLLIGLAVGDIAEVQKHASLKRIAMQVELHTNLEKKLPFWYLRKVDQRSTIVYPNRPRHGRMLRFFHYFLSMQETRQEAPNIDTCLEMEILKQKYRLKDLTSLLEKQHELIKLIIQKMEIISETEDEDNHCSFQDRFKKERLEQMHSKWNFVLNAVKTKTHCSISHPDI
Assay: Agonist activity at rat TRPA1 receptor expressed in HEK293 cells assessed as intracellular calcium stimulation
pEC50: −log10 of the molar value.
Measurement Label: pEC50

[
  {
    "Mol Smiles": "CC(C)[C@@H]1CC[C@@H](C)C[C@H]1NC(=O)Oc1cccc(C(F)(F)F)c1",
    "Result Number": 4.86
  }
]

A. CC(C)[C@@H]1CC[C@@H](C)C[C@H]1NC(=O)Oc1cccc(-c2ccccc2)c1
B. CC(C)[C@@H]1CC[C@@H](C)C[C@H]1NC(=O)c1ccc(-c2ccccc2)cc1
Request: Consider A and B . Which of these has its pEC50 at a higher number? Give the label under which the chosen entry appears.
Result: B
(B: 5.39, A: 4.51)

1. CC(C)[C@@H]1CC[C@@H](C)C[C@H]1NC(=O)Oc1cccc(C(C)(C)C)c1
2. CC(C)[C@@H]1CC[C@@H](C)C[C@H]1NC(=O)Oc1ccc(Cl)cc1
3. Cc1ccc(OC(=O)N[C@@H]2C[C@H](C)CC[C@H]2C(C)C)cc1
Request: Endpoint returns the given compounds ordered by ascending pEC50. The reply should contain the labels ordered as requested.
Result: 1, 2, 3

A. CC(C)[C@@H]1CC[C@@H](C)C[C@H]1NC(=O)CCCCCCCc1ccccc1
B. CC(C)[C@@H]1CC[C@@H](C)C[C@H]1NC(=O)c1ccc(C(C)(C)C)cc1
Request: Exercise: compare A and B ; which one has the greater pEC50? # answer = label of selected item
Result: B

A. CC(C)[C@@H]1CC[C@@H](C)C[C@H]1NC(=O)Oc1ccc(-c2ccccc2)cc1
B. CC(C)[C@@H]1CC[C@@H](C)C[C@H]1NC(=O)Oc1cccc(Cl)c1
Request: Response body: label of entry with the larger pEC50; valid values A , B . Let me know the label of the one you choose.
Result: A

====

Molecular target: Transient receptor potential cation channel subfamily M member 8 (Rattus norvegicus, UniProt Q8R455)
Sequence (Q8R455 whole entry): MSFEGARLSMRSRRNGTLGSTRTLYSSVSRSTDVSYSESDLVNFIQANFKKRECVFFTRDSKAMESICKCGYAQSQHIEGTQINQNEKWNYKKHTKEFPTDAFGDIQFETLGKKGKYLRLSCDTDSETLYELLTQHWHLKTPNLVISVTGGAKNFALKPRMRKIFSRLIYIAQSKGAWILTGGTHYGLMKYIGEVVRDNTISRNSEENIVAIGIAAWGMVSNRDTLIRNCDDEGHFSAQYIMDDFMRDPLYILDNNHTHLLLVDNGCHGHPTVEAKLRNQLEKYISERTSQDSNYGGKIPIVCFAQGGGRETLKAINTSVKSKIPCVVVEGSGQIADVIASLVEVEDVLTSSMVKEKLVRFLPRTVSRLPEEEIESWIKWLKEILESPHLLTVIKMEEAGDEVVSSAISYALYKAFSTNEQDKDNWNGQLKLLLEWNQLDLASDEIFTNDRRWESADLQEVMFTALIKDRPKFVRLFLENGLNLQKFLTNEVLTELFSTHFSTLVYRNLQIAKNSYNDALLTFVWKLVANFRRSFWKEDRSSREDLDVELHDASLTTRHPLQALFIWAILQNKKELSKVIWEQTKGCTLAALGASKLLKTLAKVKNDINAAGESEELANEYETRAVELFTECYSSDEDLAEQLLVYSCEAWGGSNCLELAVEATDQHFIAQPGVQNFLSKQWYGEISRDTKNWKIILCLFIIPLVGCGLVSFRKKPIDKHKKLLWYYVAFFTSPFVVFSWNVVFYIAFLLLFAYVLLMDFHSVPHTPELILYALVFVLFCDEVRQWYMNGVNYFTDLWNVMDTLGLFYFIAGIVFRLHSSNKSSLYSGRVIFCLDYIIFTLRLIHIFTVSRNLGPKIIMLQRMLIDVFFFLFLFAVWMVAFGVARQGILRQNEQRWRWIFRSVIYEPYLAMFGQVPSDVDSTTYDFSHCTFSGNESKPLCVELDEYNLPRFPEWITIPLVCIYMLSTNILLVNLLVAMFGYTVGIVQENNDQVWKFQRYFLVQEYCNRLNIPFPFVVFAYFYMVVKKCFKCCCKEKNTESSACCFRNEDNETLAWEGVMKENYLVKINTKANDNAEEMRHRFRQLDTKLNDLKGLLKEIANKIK
Assay: Antagonist activity at rat TRMP8 receptor expressed in HEK293 cells assessed as menthol-induced calcium elevation
Type: functional, cell-based
Measurement Label: IC50 (nM)

Examples with their reported IC50 follow.
[
  {
    "Mol Smiles": "CC(C)[C@@H]1CC[C@@H](C)C[C@H]1NC(=O)c1ccc(-c2ccccc2)cc1",
    "IC50 (nM)": 20
  },
  {
    "Mol Smiles": "CC(C)[C@@H]1CC[C@@H](C)C[C@H]1NC(=O)c1cccc(Cl)c1",
    "IC50 (nM)": 2800
  }
]

A. CC(C)[C@@H]1CC[C@@H](C)C[C@H]1NC(=O)CCCCCCCc1ccccc1
B. CC(C)[C@@H]1CC[C@@H](C)C[C@H]1NC(=O)Oc1cccc(Cl)c1
C. CC(C)[C@@H]1CC[C@@H](C)C[C@H]1NC(=O)Oc1ccc(C(F)(F)F)cc1
D. COc1ccc(C(=O)N[C@@H]2C[C@H](C)CC[C@H]2C(C)C)cc1
Request: // ranking: key=IC50, reverse=True Lab note: final answer is the ordered label list.
Result: D, B, A, C

====

Target: UniProtKB Q6RI86
Assay: Agonist activity at rat TRPA1 receptor expressed in HEK293 cells assessed as intracellular calcium stimulation relative to isothiocyanate
Assay type: functional, cell-based
Measurement Label: Efficacy (%)

As a guide, the following entries are already answered.
[
  {
    "Mol Smiles": "CC(C)[C@@H]1CC[C@@H](C)C[C@H]1NC(=O)Oc1ccc(-c2ccccc2)cc1",
    "Units Text": "%",
    "Result Number": 87.2
  },
  {
    "Mol Smiles": "COc1ccc(OC(=O)N[C@@H]2C[C@H](C)CC[C@H]2C(C)C)cc1",
    "Units Text": "%",
    "Result Number": 135
  },
  {
    "Mol Smiles": "CC(C)[C@@H]1CC[C@@H](C)C[C@H]1NC(=O)c1ccc(C(C)(C)C)cc1",
    "Units Text": "%",
    "Result Number": 138
  },
  {
    "Mol Smiles": "CC(C)[C@@H]1CC[C@@H](C)C[C@H]1NC(=O)CCCCCCc1ccccc1",
    "Units Text": "%",
    "Result Number": 42.8
  }
]

I. CC(C)[C@@H]1CC[C@@H](C)C[C@H]1NC(=O)NC12CC3CC(CC(C3)C1)C2
II. CC(C)[C@@H]1CC[C@@H](C)C[C@H]1NC(=O)c1ccc(-c2ccccc2)cc1
III. CC(C)[C@@H]1CC[C@@H](C)C[C@H]1NC(=O)Oc1ccc(C(F)(F)F)cc1
IV. CC(C)[C@@H]1CC[C@@H](C)C[C@H]1NC(=O)Oc1cccc(C(C)(C)C)c1
Request: Arrange the 4 entries by Efficacy so the values rise. Arrange the labels as the request states and list them.
Result: II, III, I, IV
